- System: CCRF-CEM leukemia
- Experiment: NCI tumour cell line growth inhibition, 48 h

# Molecule, Target, TGI
measured = [
    ("CC(C#N)(c1ccccc1)N(CCc1ccccc1)C(=O)Oc1ccccc1 (stereo not given)", "CCRF-CEM leukemia", "> 100 µM"),
    ("O=c1c2ccccc2nc(-c2cccc([N+](=O)[O-])c2)n1O", "CCRF-CEM leukemia", "> 38.2 µM"),
    ("CCOC(=O)CC1=N/C(=N/C(=N)N[N+](=O)[O-])SC1", "CCRF-CEM leukemia", "> 100 µM"),
    ("C=C(Br)C(C)(Cl)CCC(Br)C(C)(C)Br (stereo not given)", "CCRF-CEM leukemia", "59.6 µM"),
    ("COc1cccc2c1C(=O)c1c(O)c3c(c(O)c1C2=O)C[C@@](O)(C(=O)CO)CC3OC1CC(N(C)CCOCC(OC(C)=O)OC(C)=O)C(O)C(C)O1 (stereo not given in full)", "CCRF-CEM leukemia", "> 0.01 µM"),
]
